Where these numbers come from: the supplement of paper PMC6897291

Test system: RIVA
Experiment: growth inhibition by drug alone (1 - RLU/untreated control) (fraction); higher = stronger inhibition
Conditions: 100 nM; time (day): 4; 177Lu-lilotomab satetraxetan 0 ug/ml
Please note: true (1) applies when growth inhibition by drug alone is -0.04 or greater, and false (0) applies otherwise.

[[record]]
molecule = "O=C(O)c1nn(Cc2ccc(Cl)cc2Cl)c2ccccc12 [Lonidamine]"
class_assignment = "false (0)"

[[record]]
molecule = "O=P1(N(CCCl)CCCl)NCCCO1 (stereo not given) [Cyclophosphamide monohydrate]"
class_assignment = "false (0)"

[[record]]
molecule = "Cc1ccccc1-n1c(Cn2cnc3c(N)ncnc32)nc2cccc(C)c2c1=O"
class_assignment = "true (1)"


Check the entry CC1=C2C[C@H]3[C@@H](CC=C4C[C@@H](O)CC[C@@]43C)[C@@H]2CC[C@]12O[C@@H]1C[C@H](C)CN[C@H]1[C@H]2C [Cyclopamine] : does growth inhibition by drug alone equal or exceed -0.04?
true (1)

Please check the record C=C1C[C@@H]2[C@H](CC[C@]3(C)C(=O)CC[C@@H]23)[C@@]2(C)C=CC(=O)C=C12 [Exemestane] and state if its growth inhibition by drug alone is at or above -0.04.
false (0)
